Biological target: Peroxisome proliferator-activated receptor delta (Homo sapiens)
Sequence (Q03181 whole entry): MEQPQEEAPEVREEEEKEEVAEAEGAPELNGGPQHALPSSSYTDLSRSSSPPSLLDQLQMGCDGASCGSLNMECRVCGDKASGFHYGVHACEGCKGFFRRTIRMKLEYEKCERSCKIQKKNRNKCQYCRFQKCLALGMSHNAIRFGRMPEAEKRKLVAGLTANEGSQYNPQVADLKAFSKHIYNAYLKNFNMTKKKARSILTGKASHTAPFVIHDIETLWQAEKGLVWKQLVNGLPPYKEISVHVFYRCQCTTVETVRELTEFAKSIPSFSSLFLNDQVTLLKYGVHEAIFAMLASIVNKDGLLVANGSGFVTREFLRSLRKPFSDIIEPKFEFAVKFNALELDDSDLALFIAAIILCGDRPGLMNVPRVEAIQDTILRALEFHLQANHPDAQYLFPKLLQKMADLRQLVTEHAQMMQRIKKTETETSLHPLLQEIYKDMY
Assay: Affinity On-target Cellular interaction: (Reporter gene assay (HEK293T cells)) EUB0001141a PPARD
Type: functional, cell-based, HEK-293T
Design: mode of action Agonist, recommended concentration 1 uM
Readout type: EC50 (nM)
Answers are plain numbers, in nM.

QUERY: Consider the compound shown here: Cc1nc(-c2ccc(C(F)(F)F)cc2)sc1C(=O)NCc1ccc(OC(C)(C)C(=O)O)cc1 What is its recorded EC50?
RESULT: 160

----------
Molecular target: Nuclear receptor subfamily 1 group D member 1 (Homo sapiens)
Sequence (P20393 whole entry): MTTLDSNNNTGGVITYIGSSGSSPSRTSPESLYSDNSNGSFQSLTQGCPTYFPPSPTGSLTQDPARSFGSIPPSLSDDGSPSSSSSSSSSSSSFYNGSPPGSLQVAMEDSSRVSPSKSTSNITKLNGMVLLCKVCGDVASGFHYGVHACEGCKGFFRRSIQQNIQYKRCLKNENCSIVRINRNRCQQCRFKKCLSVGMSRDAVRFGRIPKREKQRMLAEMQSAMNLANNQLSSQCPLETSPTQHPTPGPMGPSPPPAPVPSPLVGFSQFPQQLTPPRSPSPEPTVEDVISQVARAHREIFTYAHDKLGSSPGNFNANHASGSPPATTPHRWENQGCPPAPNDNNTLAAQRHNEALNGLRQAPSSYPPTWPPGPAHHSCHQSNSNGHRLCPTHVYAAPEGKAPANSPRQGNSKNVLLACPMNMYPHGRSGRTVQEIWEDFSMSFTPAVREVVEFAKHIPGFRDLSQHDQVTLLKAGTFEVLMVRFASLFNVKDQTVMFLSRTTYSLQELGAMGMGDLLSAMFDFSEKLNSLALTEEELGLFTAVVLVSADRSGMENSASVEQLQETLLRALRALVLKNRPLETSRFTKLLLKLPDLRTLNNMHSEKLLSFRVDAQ
Experiment: Affinity On-target Cellular interaction: (Reporter gene assay (HEK293T cells)) EUB0001155a NR1D1
Readout type: pEC50
Numbers only, as −log10 of the molar value.

QUERY: Request: pEC50, test system Nuclear receptor subfamily 1 group D member 1 (Homo sapiens), entry CCCCCNC(=O)N1CCC(CN(Cc2ccc(Cl)cc2)Cc2ccc([N+](=O)[O-])s2)C1 (stereo unspecified)
RESULT: 5.70
